Test system: HEK-293T
Assay notes: Multiplex assay against HEK293T
Format: toxicity, cell-based
Stated conditions: human, 12 h, 10 µM, compound concentration 10 uM, replicate 2
# if value of Total Cell Count reaches 200, tag TRUE; if it stays below, tag FALSE

Previously resolved entries follow.
* CN1CCN(CCOc2cc(OC3CCOCC3)c3c(Nc4c(Cl)ccc5c4OCO5)ncnc3c2)CC1 | FALSE
* COc1cc2nccc(Oc3ccc(NC(=O)Nc4cc(C)on4)c(Cl)c3)c2cc1OC.O | TRUE
* Cc1[nH]c(/C=C2\C(=O)Nc3ccc(S(=O)(=O)N(C)c4cccc(Cl)c4)cc32)c(C)c1C(=O)N1CCN(C)CC1 | FALSE
* CNc1nc(NCc2ccc(NS(C)(=O)=O)cc2Cl)cc(-c2ccccn2)n1 | FALSE
* Cc1c(-c2ccc(O)cc2)n(Cc2ccc(OCCN3CCCCCC3)cc2)c2ccc(O)cc12 | FALSE

Q. Can CC(C)(O)CNc1ncc(-c2ccnc(Nc3ccnc(Cl)c3)n2)c(CC2CC2)n1 be said to have Total Cell Count at or above 200?
A. TRUE

Q. Can COc1ncc(-c2ccc3nccc(-c4ccnnc4)c3c2)cc1NS(=O)(=O)c1ccc(F)cc1F be said to have Total Cell Count at or above 200?
A. FALSE

###

Tested on: Fibroblast
Assay notes: Multiplex assay against human fibroblast
Type: toxicity, cell-based
Stated conditions: 12 h, 10 µM, compound concentration 10 uM, replicate 1
Reported values of Population Apoptotic (%) for individual entries
Express the result in % but write the number alone.

Q. State the recorded Population Apoptotic (%) for this entry: COc1cc2nccc(Oc3ccc(NC(=O)Nc4cc(C)on4)c(Cl)c3)c2cc1OC.O
A. 47

Q. State the recorded Population Apoptotic (%) for this entry: CN(C)C(=O)/C(C#N)=C/c1ccc(-c2nc3cnc4[nH]ccc4c3n2C2CCCCC2)o1
A. 51

Q. State the recorded Population Apoptotic (%) for this entry: C=CC(=O)Nc1cccc(C(=O)Nc2ccc(Nc3cc(-c4[nH]c(SC)nc4C)ccn3)cc2)c1
A. 50

Q. State the recorded Population Apoptotic (%) for this entry: CN1CCCC(n2nc(Cc3ccc(Cl)cc3)c3ccccc3c2=O)CC1.Cl (stereo not given) [AZELASTINE HYDROCHLORIDE]
A. 74

Q. State the recorded Population Apoptotic (%) for this entry: CN1CCN(CCOc2cc(OC3CCOCC3)c3c(Nc4c(Cl)ccc5c4OCO5)ncnc3c2)CC1
A. 60

###

Tested on: U2OS
Assay notes: Multiplex assay against U2OS
Format: toxicity, cell-based
Stated conditions: human, 48 h, 1 µM, compound concentration 1 uM, replicate 1
# if value of Population Pyknosed Nuclei (%) reaches 10%, tag condition met; if it stays below, tag condition not met

* Cc1[nH]c(/C=C2\C(=O)Nc3ccc(S(=O)(=O)N(C)c4cccc(Cl)c4)cc32)c(C)c1C(=O)N1CCN(C)CC1 | condition met
* C[C@@H](NCCCc1cccc(C(F)(F)F)c1)c1cccc2ccccc12.Cl [CINACALCET HYDROCHLORIDE] | condition met
* O=C(NCCCC1CCCCC1)c1ccc(CNC(=O)c2cnn(-c3ccccc3)c2C(F)(F)F)cc1 | condition not met

Q. Can COc1cc(-n2cnc3cc(-c4ccc(Cl)cc4)sc3c2=O)ccc1OCCN1CCCC1 be said to have Population Pyknosed Nuclei (%) at or above 10%?
A. condition met

Q. Can c1cn2cc(-c3ccc4cn[nH]c4c3)nc(Nc3ccc(N4CCOCC4)cc3)c2n1 be said to have Population Pyknosed Nuclei (%) at or above 10%?
A. condition met

Q. Can CC[C@H](C)C(=O)O[C@H]1C[C@@H](C)C=C2C=C[C@H](C)[C@H](CC[C@@H]3C[C@@H](O)CC(=O)O3)[C@H]21 be said to have Population Pyknosed Nuclei (%) at or above 10%?
A. condition not met

Q. Can C=CC(=O)Nc1cccc(C(=O)Nc2ccc(Nc3cc(-c4[nH]c(SC)nc4C)ccn3)cc2)c1 be said to have Population Pyknosed Nuclei (%) at or above 10%?
A. condition not met

Q. Can CN1CCCC(n2nc(Cc3ccc(Cl)cc3)c3ccccc3c2=O)CC1.Cl (stereo not drawn) [AZELASTINE HYDROCHLORIDE] be said to have Population Pyknosed Nuclei (%) at or above 10%?
A. condition met
